A short record of Ki observed with Beta-1 adrenergic receptor (Rattus norvegicus, UniProt P18090, Y356A) follows.
Sequence (P18090 whole entry Y356A): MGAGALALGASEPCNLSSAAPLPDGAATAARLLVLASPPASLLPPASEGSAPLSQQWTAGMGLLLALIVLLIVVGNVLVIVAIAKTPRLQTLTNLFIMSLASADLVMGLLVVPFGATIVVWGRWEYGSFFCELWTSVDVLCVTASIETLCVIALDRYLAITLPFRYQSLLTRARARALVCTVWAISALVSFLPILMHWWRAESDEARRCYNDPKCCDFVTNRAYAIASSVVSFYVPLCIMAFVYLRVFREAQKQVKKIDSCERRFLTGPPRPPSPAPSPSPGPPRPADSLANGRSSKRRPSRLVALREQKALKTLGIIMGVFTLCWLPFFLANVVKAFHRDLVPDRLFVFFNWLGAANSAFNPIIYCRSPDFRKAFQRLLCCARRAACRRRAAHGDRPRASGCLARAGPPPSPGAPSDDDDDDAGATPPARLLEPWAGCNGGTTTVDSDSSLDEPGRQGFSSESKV
One number for each entry, in µM.

Below, each entry is followed by its recorded Ki result.
INSERT INTO assay_data (compound, result_value) VALUES
  ('CCOCCOc1ccc(OC[C@@H](O)CNCCc2ccc(OC)c(OC)c2)cc1', 0.794),
  ('CC(C)(C)NCC(O)COc1cccc2[nH]c(C#N)cc12 (centres undefined)', 0.316),
  ('Cn1cc(C(F)(F)F)nc1-c1ccc(OCC(O)CNCCOc2ccc(O)c(C(N)=O)c2)cc1 (centres undefined) [CGP-20712A]', 10);

# ---- query compound ----
Enquiry: What does the data say about its Ki? Entry: N#Cc1cc(OCCOCC2CC2)ccc1OCC(O)CNCCNC(=O)Nc1ccc(O)cc1 (centres undefined)
Return: 79.4

---

Reported values: pKi for Beta-1 adrenergic receptor (Rattus norvegicus, UniProt P18090, Y356F), one per item.
Answers are plain numbers, as −log10 of the molar value.

Below, each entry is followed by its recorded pKi result.
INSERT INTO results (compound, result_value) VALUES
  ('CCOCCOc1ccc(OC[C@@H](O)CNCCc2ccc(OC)c(OC)c2)cc1', 7.00),
  ('CC(C)(C)NCC(O)COc1cccc2[nH]c(C#N)cc12 (centres undefined)', 10.40),
  ('Cn1cc(C(F)(F)F)nc1-c1ccc(OCC(O)CNCCOc2ccc(O)c(C(N)=O)c2)cc1 (centres undefined) [CGP-20712A]', 8.70);

Next item in the queue.
Enquiry: # input compound: N#Cc1cc(OCCOCC2CC2)ccc1OCC(O)CNCCNC(=O)Nc1ccc(O)cc1 (centres undefined) ; wanted: its pKi
Return: 7.10

---

assayed-target: Beta-1 adrenergic receptor (Rattus norvegicus, UniProt P18090, Y356F)
Sequence (P18090 whole entry Y356F): as the sequence (P18090 whole entry Y356A) above, with A356F counted along it
observation-type: Kd (nM)
One number for each entry, in nM.

Enquiry: Which Kd reading was recorded for the compound CC(C)(C)NCC(O)COc1cccc2[nH]c(C#N)c(I)c12 (stereo unspecified) ?
Return: 0.0794

---

assayed-target: Beta-1 adrenergic receptor (Rattus norvegicus, UniProt P18090, Y356A)
observation-type: pKd
Give bare numbers, as −log10 of the molar value.

Enquiry: For the molecule CC(C)(C)NCC(O)COc1cccc2[nH]c(C#N)c(I)c12 (stereo unspecified) , what pKd is on record?
Return: 9.50

---

assayed-target: Beta-1 adrenergic receptor (Rattus norvegicus, UniProt P18090, W134A)
Sequence (P18090 whole entry W134A): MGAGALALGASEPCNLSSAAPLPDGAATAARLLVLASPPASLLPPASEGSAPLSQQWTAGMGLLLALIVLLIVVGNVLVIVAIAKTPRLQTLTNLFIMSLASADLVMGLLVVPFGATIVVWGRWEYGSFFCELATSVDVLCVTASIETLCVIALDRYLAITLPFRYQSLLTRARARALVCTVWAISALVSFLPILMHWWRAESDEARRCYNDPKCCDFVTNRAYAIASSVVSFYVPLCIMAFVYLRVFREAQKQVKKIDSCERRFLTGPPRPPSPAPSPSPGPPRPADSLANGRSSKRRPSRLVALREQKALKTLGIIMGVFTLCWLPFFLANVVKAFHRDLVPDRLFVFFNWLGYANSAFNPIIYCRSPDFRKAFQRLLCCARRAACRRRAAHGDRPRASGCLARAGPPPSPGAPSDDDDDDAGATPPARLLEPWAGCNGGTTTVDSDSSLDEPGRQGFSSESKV
Consider the following compounds; for each one, report its pKi.
Numbers only, as −log10 of the molar value.

INSERT INTO results (compound, result_value) VALUES
  ('CCOCCOc1ccc(OC[C@@H](O)CNCCc2ccc(OC)c(OC)c2)cc1', 7.10),
  ('Cn1cc(C(F)(F)F)nc1-c1ccc(OCC(O)CNCCOc2ccc(O)c(C(N)=O)c2)cc1 (centres undefined) [CGP-20712A]', 8.10);

Provide reported pKi for each item, in the same order as listed.
1. N#Cc1cc(OCCOCC2CC2)ccc1OCC(O)CNCCNC(=O)Nc1ccc(O)cc1 (centres undefined)
2. CC(C)(C)NCC(O)COc1cccc2[nH]c(C#N)cc12 (centres undefined)

Return:
1. 7.20
2. 9.90

---

assayed-target: Beta-1 adrenergic receptor (Rattus norvegicus)
observation-type: pKd
Numbers only, as −log10 of the molar value.

Enquiry: Param readout = pKd; param system = Beta-1 adrenergic receptor (Rattus norvegicus); param query = CC(C)(C)NCC(O)COc1cccc2[nH]c(C#N)c(I)c12 (stereo unspecified) ; response: value
Return: 10.20
